Biological target: T1, human Claudin18.2 (Homo sapiens, UniProt P56856)
T1 construct: expressed in transfected cells
Assay: Cell-based ELISA affinity of humanized antibodies on HEK293T-Claudin18.2 (human) cells
Assay type: binding
Conditions: HEK293T-Claudin18.2 cells
Answer each item with its documented Affinity detected by cell-based ELISA (EC50, ng/mL) HEK293T-Claudin18.2.

25C7A5-HZ1: humanized anti-Claudin18.2 antibody, VH SEQ ID NO: 1, VL SEQ ID NO: 2, human IgG1/Kappa constant regions (antibody, V domains shown, human IgG1/kappa constant regions) VH: QVQLVQSGAEVKKPGSSVKVSCKASGYTFTNYWLHWVRQAPGQGLEWMGMMHPISGSSNYAQKFQGRATLTVDKSTSTAYMELSSLRSEDTAVYYCARGLLSAMDYWGQGTLVTVSS VL: EIVLTQSPATLSLSPGERATLSCKASENVKTYVSWYQQKPGQSPRLLIYEASNRYTGVPARFSGSGSATDFTLTISSLEPEDFAVYFCGQTYSFPPTFGQGTKVEIK = 11.15 ng/mL

Please go through the list and note Affinity detected by cell-based ELISA (EC50, ng/mL) HEK293T-Claudin18.2 for each molecule.
1. 2D3A11-HZ2: humanized anti-Claudin18.2 antibody, VH SEQ ID NO: 40, VL SEQ ID NO: 39 (antibody, V domains shown) VH: QVQLVESGAEVKKPGASVKVSCKASGYTFTSYVVHWVRQAPGQGLEWMGYINPYNADSKYSQEFQGRATLTSDKSASTAYMELSSLRSEDMAVYYCSRSYYGNSFDVWGQGTLVTVSS VL: DIVMTQSPDSLAVSLGERATINCKSSQSLLNSGNQKNYLTWYQQKPGQSPKLLFFWASTRQSGVPDRFSGSGSGTDFTLTISSLQAEDVAVYYCQNDYYFPFTFGQGTKVEIK
2. 25C7A5-HZ2: humanized anti-Claudin18.2 antibody, VH SEQ ID NO: 3, VL SEQ ID NO: 2, human IgG1/Kappa constant regions (antibody, V domains shown, human IgG1/kappa constant regions) VH: QVQLVESGAEVKKPGSSVKVSCKASGYTFTNYWLHWVRQAPGQGLEWMGMMHPISGSSNYAQKFQGRATLTVDKSTSTAYMELSSLRSEDTAVYYCARGLLSAMDYWGQGTLVTVSS VL: EIVLTQSPATLSLSPGERATLSCKASENVKTYVSWYQQKPGQSPRLLIYEASNRYTGVPARFSGSGSATDFTLTISSLEPEDFAVYFCGQTYSFPPTFGQGTKVEIK
3. 2D3A11-HZ1: humanized anti-Claudin18.2 antibody, VH SEQ ID NO: 38, VL SEQ ID NO: 39 (antibody, V domains shown) VH: QVQLVQSGAEVKKPGASVKVSCKASGYTFTSYVVHWVRQAPGQGLEWMGYINPYNADSKYSQEFQGRATLTSDKSASTAYMELSSLRSEDMAVYYCSRSYYGNSFDVWGQGTLVTVSS VL: DIVMTQSPDSLAVSLGERATINCKSSQSLLNSGNQKNYLTWYQQKPGQSPKLLFFWASTRQSGVPDRFSGSGSGTDFTLTISSLQAEDVAVYYCQNDYYFPFTFGQGTKVEIK

["14.01 ± 2.29(N = 2) ng/mL", "11.17 ± 2.19(N = 2) ng/mL", "12.67 ± 2.1(N = 2) ng/mL"]

Hey, just so you know, these numbers are from patent US20260201030A1.
